Tested on: NIH3T3 cells overexpressing cystatin alpha
ASSAY_SUMMARY: MTT cell viability, cystatin alpha overexpressing cells vs parental line
Assay type: cell-based, mouse
EXPERIMENTAL_CONDITIONS: cystatin alpha high-expressing cells / parental cell line, 3 to 4 days
OBSERVATION_TYPE: logarithmic value of ratio of IC40 values
One number for each entry.

Here is how some compounds turned out for logarithmic value of ratio of IC40 values.
compound=CNc1ccc2oc(C[C@H]3O[C@@]4(CC[C@H]3C)O[C@H]([C@H](C)C(=O)c3ccc[nH]3)[C@H](C)C[C@H]4C)nc2c1C(=O)O result_value=0.26
compound=C/C=C(/C)C(=O)O[C@H]1C(C)=C2[C@H]([C@@H]1OC(=O)CCCCCCC)[C@@](C)(OC(C)=O)C[C@H](OC(=O)CCC)[C@@]1(O)[C@H]2OC(=O)[C@@]1(C)O result_value=0.04
compound="O=[As]O [NaAsO2, sodium arsenite]" result_value=−0.05
compound=CN[C@@H]1C[C@H]2O[C@@](C)([C@@H]1OC)n1c3ccccc3c3c4c(c5c6ccccc6n2c5c31)C(=O)NC4 result_value=0.30
compound=C=C1[C@@H](O)[C@@H]2O[C@]3(CC[C@H](/C=C/[C@@H](C)[C@@H]4CC(C)=C[C@@]5(O[C@H](C[C@@](C)(O)C(=O)O)CC[C@H]5O)O4)O3)CC[C@H]2O[C@@H]1[C@@H](O)C[C@H](C)[C@H]1O[C@@]2(CCCCO2)CC[C@H]1C result_value=0.08

Please give logarithmic value of ratio of IC40 values, item by item, for the list that follows.
1. C[C@@H]1C[C@@H]([C@H](O)CC2CC(=O)NC(=O)C2)C(=O)[C@@H](C)C1 [CHX, cycloheximide]
2. CN(C)CCCn1cc(C2=C(c3c[nH]c4ccccc34)C(=O)NC2=O)c2ccccc21 [GF109203X]
3. COc1ccc2c(c1)CC[C@@H]1[C@@H]2CC[C@]2(C)[C@@H](NCCCCCCN3C(=O)C=CC3=O)CC[C@@H]12
4. C[C@@H]1O[C@@H](O[C@H]2C[C@@H](O)[C@]3(CO)[C@H]4[C@H](O)C[C@]5(C)[C@@H](C6=CC(=O)OC6)CC[C@]5(O)[C@@H]4CC[C@]3(O)C2)[C@H](O)[C@H](O)[C@H]1O

RESULT:
0.34
0.60
0.04
1.28

* * *

Test system: NIH3T3 cells overexpressing calpastatin
ASSAY_SUMMARY: MTT cell viability, calpastatin overexpressing cells vs parental line
Format: cell-based, mouse
EXPERIMENTAL_CONDITIONS: calpastatin high-expressing cells / parental cell line, 3 to 4 days
OBSERVATION_TYPE: logarithmic value of ratio of IC40 values
Give bare numbers.

# annotated cases, reported logarithmic value of ratio of IC40 values shown
compound=C=C[C@]1(C)CC[C@@H](C(=C)C)C[C@H]1C(=C)C result_value=0.18
compound="COC(=O)[C@@]1(O)C[C@H]2O[C@]1(C)n1c3ccccc3c3c4c(c5c6ccccc6n2c5c31)C(=O)NC4 [K252a]" result_value=0.1
compound=CNc1ccc2oc(C[C@H]3O[C@@]4(CC[C@H]3C)O[C@H]([C@H](C)C(=O)c3ccc[nH]3)[C@H](C)C[C@H]4C)nc2c1C(=O)O result_value=−0.12
compound=C=C1[C@@H](O)[C@@H]2O[C@]3(CC[C@H](/C=C/[C@@H](C)[C@@H]4CC(C)=C[C@@]5(O[C@H](C[C@@](C)(O)C(=O)O)CC[C@H]5O)O4)O3)CC[C@H]2O[C@@H]1[C@@H](O)C[C@H](C)[C@H]1O[C@@]2(CCCCO2)CC[C@H]1C result_value=−0.04

Give one value of logarithmic value of ratio of IC40 values per listed compound.
1. C=CC1=C(C)c2cc3[n-]c(cc4nc(cc5[n-]c(cc1n2)c(C)c5CCC(=O)O)C(CCC(=O)O)=C4C)c(C)c3C=C.[Cl-].[Cl-].[Sn+4]
2. CCCC[C@@H](C)/C=C(C)/C=C(\C)C(=O)NC1=C[C@@](O)(/C=C/C=C/C=C/C(=O)NC2=C(O)CCC2=O)[C@@H]2O[C@@H]2C1=O

RESULT:
1: 0.486; 2: 0.02

This collection of values is drawn from patent US20040086901A1.
